Target: CYP2C9 (Homo sapiens, UniProt P11712)
Sequence (P11712 whole entry): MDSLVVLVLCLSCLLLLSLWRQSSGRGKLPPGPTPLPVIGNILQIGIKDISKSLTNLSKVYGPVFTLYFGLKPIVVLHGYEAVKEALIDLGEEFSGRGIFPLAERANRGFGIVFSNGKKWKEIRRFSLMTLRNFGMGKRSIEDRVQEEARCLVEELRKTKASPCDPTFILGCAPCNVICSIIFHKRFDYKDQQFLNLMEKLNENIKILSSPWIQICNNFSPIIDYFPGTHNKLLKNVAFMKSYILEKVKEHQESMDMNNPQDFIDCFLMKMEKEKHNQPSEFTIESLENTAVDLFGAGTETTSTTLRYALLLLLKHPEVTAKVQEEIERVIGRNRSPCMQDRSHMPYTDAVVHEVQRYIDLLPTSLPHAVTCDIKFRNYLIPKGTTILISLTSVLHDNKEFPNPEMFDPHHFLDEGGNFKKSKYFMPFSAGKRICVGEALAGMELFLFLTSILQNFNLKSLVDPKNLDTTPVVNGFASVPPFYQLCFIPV
Assay: Inhibition of CYP2C9 in human liver microsome at 10 uM pre-incubated with compound for 10 mins in presence of NADPH-regenerating system by LC-MS/MS analysis relative to control
Type: ADME
Conditions: liver microsomes
measured_parameter: inhibition at 10 µM (%)
Answers are plain numbers, in %.

Nc1ccc(S(=O)(=O)Nc2ccnn2-c2ccccc2)cc1 [SULFAPHENAZOLE]; 87.2

Kindly review the next compound as well.
*Q* Consider the compound CC(C)Oc1cc(F)ccc1-c1ccnc(NC(=O)Nc2cccc(C(=O)N3CCN(C)CC3)c2)c1 and give its measured inhibition at 10 µM.
*A* 15.9
